- protocolSummary: photoluminescence quantum yield (fraction); solvent given as SMILES
- conditionParameters: in ClCCl
The label is criterion met for photoluminescence quantum yield below 0.4 and criterion not met for photoluminescence quantum yield equal to or exceeding 0.4.

Consider the worked cases shown below.
{"columns": ["compound", "qualitativeLabel"],
 "data": [
  ["Cc1ccc(O)c(-c2nc(C)c3n2CCCC3)c1", "criterion not met"],
  ["c1ccc(C2=C(c3ccccc3)c3cccc4c3c(cc3nc5c(-c6ccccc6)ccc(-c6ccccc6)c5nc34)O2)cc1", "criterion met"],
  ["COc1ccc(C#Cc2ncc(-c3ccccc3)o2)cc1OC", "criterion met"],
  ["CCCCn1c2ccc(C#N)cc2c2cc(C#N)cc(-c3ccc(N(c4ccccc4)c4ccccc4)cc3)c21", "criterion not met"],
  ["CC(C)(C)c1cc(-c2c3cc(c(-c4cc(C(C)(C)C)cc(C(C)(C)C)c4)c4ccc([nH]4)c(-c4ccc(Br)cc4)c4nc(c(-c5ccc(Br)cc5)c5ccc2[nH]5)C=C4)N=C3)cc(C(C)(C)C)c1", "criterion met"],
  ["O=P1(c2ccccc2)C(c2ccc(C(F)(F)F)cc2)=Cc2cc3ccccc3cc21 (stereo unspecified)", "criterion not met"]
]}

For `Cc1cc(-c2nc3c4ccccc4c4ccccc4c3n2-c2ccc(C(C)(C)C)cc2)ccc1-c1ccc(-c2c(-c3ccccc3)nc3ccccn23)cc1` , is the recorded photoluminescence quantum yield below the cut-off of 0.4?
criterion not met

For `CC(=O)c1cc(=O)n(C)c2cc(-c3ccc(N(C)C)cc3)sc12` , is the recorded photoluminescence quantum yield below the cut-off of 0.4?
criterion met

For `COCCOCCOCCOCC(COCCOCCOCCOC)Oc1cc(/C=C/c2ccc(C=C3C(=O)c4ccccc4C3=O)cc2)c(OC(COCCOCCOCCOC)COCCOCCOCCOC)cc1/C=C/c1ccc(C=C2C(=O)c3ccccc3C2=O)cc1` , is the recorded photoluminescence quantum yield below the cut-off of 0.4?
criterion met

For `Cc1nc(-c2cc(C(F)(F)F)ccc2O)n2c1CCCC2` , is the recorded photoluminescence quantum yield below the cut-off of 0.4?
criterion not met

For `C(=C\c1ncc2ccccc2n1)/c1ccc(N2CCCCC2)cc1` , is the recorded photoluminescence quantum yield below the cut-off of 0.4?
criterion met

For `CC(=O)c1nc(-c2ccc(N(c3ccccc3)c3ccccc3)cc2)oc1C` , is the recorded photoluminescence quantum yield below the cut-off of 0.4?
criterion not met

---

Listing of recorded photoluminescence quantum yield by entry.
- protocolSummary: photoluminescence quantum yield (fraction); solvent given as SMILES
- conditionParameters: in CCOC(C)=O

// worked examples, photoluminescence quantum yield included
{"columns": ["smi", "result"],
 "data": [
  ["CCN(CC)c1ccc2cc(/C=C(\\C#N)c3nc4ccccc4o3)c(=O)oc2c1", 0.0068],
  ["CC1=CC(C)=[N+]2C1=C(c1ccc(N3CCOCC3)cc1)c1c(C)cc(C)n1[B-]2(F)F", 0.029],
  ["COc1ccc(/C=C/C2=NC(=C\\c3ccncc3)/C(=O)N2C)cc1", 0.003],
  ["CCn1ncc2c3c(C#N)c4c5ccccc5n(C)c4nc3ccc21", 0.56]
]}

Next item in the queue.
Noted for `CCn1c2ccccc2c2cc(-c3cc(-c4ccc5c(c4)c4ccccc4n5CC)ncn3)ccc21` : its photoluminescence quantum yield reads 0.8

---

- protocolSummary: photoluminescence quantum yield (fraction); solvent given as SMILES
- conditionParameters: in CCCCO
Listing of recorded photoluminescence quantum yield by entry.
Respond numerically, and do not add a unit to the figure.

// worked examples, photoluminescence quantum yield included
{"columns": ["smi", "quantitativeReadout"],
 "data": [
  ["C#CCN1C(=O)/C(=C/c2cc(OC(C)C)ccc2OC(C)C)N=C1C", 0.029],
  ["COc1cccc2c1C(=O)c1ccccc1-2", 0.023]
]}

Next item in the queue.
Noted for `CCCCCCC(CCCCCC)N1C(=O)c2cccc3c(-c4ccc(N(C)C)cc4)ccc(c23)C1=O` : its photoluminescence quantum yield reads 0.013

---

Listing of recorded photoluminescence quantum yield by entry.
- protocolSummary: photoluminescence quantum yield (fraction); solvent given as SMILES
- conditionParameters: in Cc1ccccc1
Respond numerically, and do not add a unit to the figure.

{"columns": ["smi", "endpoint", "quantitativeReadout"],
 "data": [
  ["CC1(C)c2cc(/C=C/c3nc(/C=C/c4ccc5c(c4)C(C)(C)c4cc(N(c6ccccc6)c6ccccc6)ccc4-5)nc(/C=C/c4ccc5c(c4)C(C)(C)c4cc(N(c6ccccc6)c6ccccc6)ccc4-5)n3)ccc2-c2ccc(N(c3ccccc3)c3ccccc3)cc21", "photoluminescence quantum yield", 0.36],
  ["Cc1cc(-c2nc(-c3ccccc3)nc(-c3ccccc3)n2)ccc1-n1c2ccccc2c2cc3c(cc21)C1c2ccccc2C3c2ccccc21", "photoluminescence quantum yield", 0.6],
  ["COc1ccc(-c2cc3c4c(c2)CCc2cc(-c5ccc(OC)cc5)cc(c2-4)CC3)cc1", "photoluminescence quantum yield", 1],
  ["N#CC(C#N)=Cc1ccc2nc(C#Cc3ccc(N(c4ccccc4)c4ccccc4)cc3)sc2c1", "photoluminescence quantum yield", 0.47],
  ["c1ccc2c(c1)Cc1ccccc1N2c1c2ccccc2c(N2c3ccccc3Cc3ccccc32)c2ccccc12", "photoluminescence quantum yield", 0.06]
]}

Noted for `O=c1c2ccccc2oc2cc(N3c4ccccc4C4(c5ccccc5Oc5ccccc54)c4ccccc43)ccc12` : its photoluminescence quantum yield reads 0.77

Noted for `CN(C)c1ccc(C2=Nc3scc[n+]3[B-](F)(F)O2)cc1` : its photoluminescence quantum yield reads 0.99

Noted for `CCN(CC)c1ccc2cc(/C=C/c3cccc[n+]3CCCS(=O)(=O)[O-])c(=O)oc2c1` : its photoluminescence quantum yield reads 0.02

Noted for `CC1(C)c2ccccc2N(c2ccc3c(c2)-c2cc(N4c5ccccc5C(C)(C)c5ccccc54)ccc2P3(=O)c2ccccc2)c2ccccc21` : its photoluminescence quantum yield reads 0.55

Noted for `CC(C)(C)c1ccc2c(c1)c1cc(C(C)(C)C)ccc1n2-c1cc(C(=O)c2ccccc2)cc(-n2c3ccc(C(C)(C)C)cc3c3cc(C(C)(C)C)ccc32)c1` : its photoluminescence quantum yield reads 0.073

Noted for `CC(C)[Si](C#Cc1c2ccc(C(C)(C)C)cc2c(C#Cc2c3ccc(C(C)(C)C)cc3c(C#Cc3c4ccc(C(C)(C)C)cc4c(C#C[Si](C(C)C)(C(C)C)C(C)C)c4ccc(C(C)(C)C)cc34)c3ccc(C(C)(C)C)cc23)c2ccc(C(C)(C)C)cc12)(C(C)C)C(C)C` : its photoluminescence quantum yield reads 0.022

Noted for `COc1ccc(C2=[N+]3C(=Nc4c(-c5cc(OC)c(OC)c(OC)c5)c(-c5ccc(C(C)(C)C)cc5)c(-c5ccc(OC)cc5)n4[B-]3(F)F)C(c3cc(OC)c(OC)c(OC)c3)=C2c2ccc(C(C)(C)C)cc2)cc1` : its photoluminescence quantum yield reads 0.04

Noted for `CC(=O)c1c2c(cc3cc(N(C)C)ccc13)CCC2` : its photoluminescence quantum yield reads 0.25

Noted for `CCCC1=Cc2nc1ccc1[nH]c(cc1CCC)c1nc(c(O)cc3[nH]c2cc3CCC)C(CCC)=C1` : its photoluminescence quantum yield reads 0.15

---

- protocolSummary: photoluminescence quantum yield (fraction); solvent given as SMILES
- conditionParameters: in CCO
Returns yes if the recorded photoluminescence quantum yield is greater than or equal to 0.1, and no otherwise.

Consider the worked cases shown below.
{"columns": ["smi", "qualitativeLabel"],
 "data": [
  ["COc1cccc2c1C(=O)c1ccccc1-2", "no"],
  ["O=Cc1cnc(-c2c3ccccc3cc3ccccc23)nc1", "yes"],
  ["Cc1oc2c(Cl)cc3c(C)cc(=O)oc3c2c1C", "no"],
  ["N#C/C(=C\\c1ccc(C#N)cc1)c1nc(-c2ccccc2)cs1", "yes"],
  ["CN1/C(=C/C=C(/C=C/c2sc3ccccc3[n+]2C)c2cccc(C(F)(F)F)c2)Sc2ccccc21", "yes"],
  ["CCN(CC)c1ccc2c(C#N)c(/C=C(\\C#N)c3nc4ccccc4o3)c(=O)oc2c1", "no"]
]}

In plain terms: is recorded photoluminescence quantum yield at least 0.1 for `COC(=O)c1nc(-c2cccc3ccccc23)oc1C` ?
yes

In plain terms: is recorded photoluminescence quantum yield at least 0.1 for `Cc1cnc(NC(=O)C2=C(O)c3ccccc3S(=O)(=O)N2C)s1` ?
no

In plain terms: is recorded photoluminescence quantum yield at least 0.1 for `CN(C)c1ccc(/C=C2\CC/C(=C\c3ccc(N(C)C)cc3)C2=O)cc1` ?
yes

In plain terms: is recorded photoluminescence quantum yield at least 0.1 for `N#Cc1cnc(-c2c3ccccc3c(-c3ncc(C#N)cn3)c3ccccc23)nc1` ?
yes

In plain terms: is recorded photoluminescence quantum yield at least 0.1 for `CC(C)=CCN1C(=O)c2cccc3c2c(cc2oc(C)nc23)C1=O` ?
no

In plain terms: is recorded photoluminescence quantum yield at least 0.1 for `CCC1=C(C)C2=C(C)c3c(I)c(I)cn3[B-](F)(F)[N+]2=C1C` ?
no

In plain terms: is recorded photoluminescence quantum yield at least 0.1 for `CCC(=O)c1ccc2cc(N(C)C)ccc2c1` ?
yes

In plain terms: is recorded photoluminescence quantum yield at least 0.1 for `Nc1ccc2c(c1)C(=O)c1ccc(N)cc1C2=O` ?
no
